Species: Rattus norvegicus
Assay: DrugMatrix - Regimen: Daily Repeat
Type: toxicity, organism-based, Sprague-Dawley
Set-up: regimen Daily Repeat, gender Male, age 6-8 weeks
Conditions: in vivo, po, 1500 mg/kg, 72 h, tissue Blood, route oral GAVAGE, dose level High, time 3 day, vehicle .5 % CMC
ABSOLUTE EOSINOPHIL values by entry
Expressed in CELLS/uL, but write only the number.

Incoming: Would you kindly share the measured ABSOLUTE EOSINOPHIL for COc1cc(/C=C/C(=O)O)ccc1O [FERULATE] ?
Outgoing: 42

Incoming: Okay, and CC[C@H]1OC(=O)[C@H](C)[C@@H](O[C@H]2C[C@@](C)(OC)[C@@H](O)[C@H](C)O2)[C@H](C)[C@@H](O[C@@H]2O[C@H](C)C[C@H](N(C)C)[C@H]2O)[C@](C)(O)C[C@@H](C)C(=O)[C@H](C)[C@@H](O)[C@]1(C)O ?
Outgoing: 0

Incoming: Okay, and Cc1ccc(S(=O)(=O)NC(=O)NN2CCCCCC2)cc1 [TOLAZAMIDE] ?
Outgoing: 0

Incoming: Okay, and O=C(O)CCc1nc(-c2ccccc2)c(-c2ccccc2)o1 ?
Outgoing: 0
